Recorded MCF7 proliferation IC50 by entry
biological target: Human HER3, endogenous, on human cancer cell lines (SK-Br-3, MCF7, BT-474) (human, UniProt P21860 20-1342); assay: cell-based or functional assay
Sequence (P21860 20-1342): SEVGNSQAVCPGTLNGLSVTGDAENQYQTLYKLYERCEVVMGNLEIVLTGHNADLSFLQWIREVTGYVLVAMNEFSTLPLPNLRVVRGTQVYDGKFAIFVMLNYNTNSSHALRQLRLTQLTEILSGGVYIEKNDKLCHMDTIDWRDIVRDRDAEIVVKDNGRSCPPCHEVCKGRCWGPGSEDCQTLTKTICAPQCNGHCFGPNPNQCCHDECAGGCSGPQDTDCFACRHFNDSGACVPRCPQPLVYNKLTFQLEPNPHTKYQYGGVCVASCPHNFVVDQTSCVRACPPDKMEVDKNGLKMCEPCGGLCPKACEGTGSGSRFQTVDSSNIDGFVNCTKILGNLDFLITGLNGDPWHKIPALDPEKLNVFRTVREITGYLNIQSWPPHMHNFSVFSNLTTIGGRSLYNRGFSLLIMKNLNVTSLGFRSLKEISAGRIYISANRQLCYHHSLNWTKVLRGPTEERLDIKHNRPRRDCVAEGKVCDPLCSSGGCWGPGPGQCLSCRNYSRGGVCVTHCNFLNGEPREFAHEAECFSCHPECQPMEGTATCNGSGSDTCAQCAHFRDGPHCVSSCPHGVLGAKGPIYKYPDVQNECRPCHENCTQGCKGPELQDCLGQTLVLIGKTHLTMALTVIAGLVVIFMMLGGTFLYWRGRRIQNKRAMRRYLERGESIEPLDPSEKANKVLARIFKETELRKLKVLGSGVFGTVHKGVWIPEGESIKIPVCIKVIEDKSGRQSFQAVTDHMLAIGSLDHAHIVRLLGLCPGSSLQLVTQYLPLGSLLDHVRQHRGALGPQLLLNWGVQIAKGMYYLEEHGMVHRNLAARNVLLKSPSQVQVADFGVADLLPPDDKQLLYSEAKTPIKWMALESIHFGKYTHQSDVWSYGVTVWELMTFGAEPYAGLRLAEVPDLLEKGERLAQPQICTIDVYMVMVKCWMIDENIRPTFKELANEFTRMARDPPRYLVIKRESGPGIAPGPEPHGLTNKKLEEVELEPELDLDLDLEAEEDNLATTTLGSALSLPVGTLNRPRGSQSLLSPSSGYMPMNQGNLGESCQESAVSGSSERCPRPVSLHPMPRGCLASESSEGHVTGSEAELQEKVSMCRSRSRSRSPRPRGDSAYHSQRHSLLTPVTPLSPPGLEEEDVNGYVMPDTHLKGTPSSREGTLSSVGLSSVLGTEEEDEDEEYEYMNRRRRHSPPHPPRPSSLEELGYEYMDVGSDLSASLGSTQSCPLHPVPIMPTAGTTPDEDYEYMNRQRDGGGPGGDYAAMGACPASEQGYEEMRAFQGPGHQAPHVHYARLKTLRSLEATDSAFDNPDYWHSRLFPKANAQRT
# output: bare number, implied unit nM

Solved entries (count: 5):
# binder, numeric-result
data = [
    ("MOR12925 (antibody, human IgG1, kappa, V domains shown, tested as IgG) VH: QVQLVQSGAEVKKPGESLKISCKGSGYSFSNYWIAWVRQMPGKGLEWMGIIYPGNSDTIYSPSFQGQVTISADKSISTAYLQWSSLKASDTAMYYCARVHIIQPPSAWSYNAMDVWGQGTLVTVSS VL: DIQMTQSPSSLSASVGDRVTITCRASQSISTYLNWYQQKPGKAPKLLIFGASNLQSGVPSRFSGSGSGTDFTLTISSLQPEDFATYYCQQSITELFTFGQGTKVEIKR", 0.604),
    ("MOR13870 (antibody, human IgG1, kappa, V domains shown, tested as IgG) VH: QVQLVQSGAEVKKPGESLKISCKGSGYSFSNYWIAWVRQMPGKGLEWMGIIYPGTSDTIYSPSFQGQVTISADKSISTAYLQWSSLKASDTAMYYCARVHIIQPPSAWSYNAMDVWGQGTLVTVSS VL: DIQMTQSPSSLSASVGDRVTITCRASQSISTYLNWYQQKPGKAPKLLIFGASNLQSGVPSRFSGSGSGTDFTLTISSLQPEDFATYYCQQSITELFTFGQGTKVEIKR", 0.061),
    ("MOR12510 (antibody, human IgG1, kappa, V domains shown, tested as IgG) VH: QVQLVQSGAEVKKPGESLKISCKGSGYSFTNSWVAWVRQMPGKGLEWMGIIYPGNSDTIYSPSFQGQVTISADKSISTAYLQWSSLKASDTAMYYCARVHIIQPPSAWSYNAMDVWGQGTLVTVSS VL: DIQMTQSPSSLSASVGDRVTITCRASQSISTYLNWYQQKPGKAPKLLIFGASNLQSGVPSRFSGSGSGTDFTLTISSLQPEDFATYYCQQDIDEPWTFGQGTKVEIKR", 0.483),
    ("MOR13867 (antibody, human IgG1, kappa, V domains shown, tested as IgG) VH: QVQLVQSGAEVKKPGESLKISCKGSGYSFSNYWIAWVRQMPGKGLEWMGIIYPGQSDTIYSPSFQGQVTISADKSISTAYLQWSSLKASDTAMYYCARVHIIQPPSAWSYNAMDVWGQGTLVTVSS VL: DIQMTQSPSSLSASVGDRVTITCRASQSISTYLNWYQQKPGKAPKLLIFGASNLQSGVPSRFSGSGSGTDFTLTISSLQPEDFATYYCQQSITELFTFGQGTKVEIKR", 0.056),
    ("MOR13759 (antibody, human IgG1, kappa, V domains shown, tested as IgG) VH: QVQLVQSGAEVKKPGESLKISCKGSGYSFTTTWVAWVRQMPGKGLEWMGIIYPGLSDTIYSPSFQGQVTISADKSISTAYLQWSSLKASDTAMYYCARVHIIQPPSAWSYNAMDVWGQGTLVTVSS VL: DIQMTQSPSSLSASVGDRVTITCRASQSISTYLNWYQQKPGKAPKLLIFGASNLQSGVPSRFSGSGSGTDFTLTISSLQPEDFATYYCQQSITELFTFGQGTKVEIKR", 0.151),
]

Please look up its MCF7 proliferation IC50: MOR12616 (antibody, human IgG1, kappa, V domains shown, tested as IgG) VH: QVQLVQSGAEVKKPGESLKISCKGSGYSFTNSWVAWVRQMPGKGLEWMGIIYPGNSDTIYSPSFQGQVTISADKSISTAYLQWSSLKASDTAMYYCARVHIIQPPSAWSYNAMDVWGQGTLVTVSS VL: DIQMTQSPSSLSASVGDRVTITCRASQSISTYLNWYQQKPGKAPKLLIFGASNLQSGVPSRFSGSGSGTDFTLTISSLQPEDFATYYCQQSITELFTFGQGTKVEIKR
0.415

Please look up its MCF7 proliferation IC50: MOR12924 (antibody, human IgG1, kappa, V domains shown) VH: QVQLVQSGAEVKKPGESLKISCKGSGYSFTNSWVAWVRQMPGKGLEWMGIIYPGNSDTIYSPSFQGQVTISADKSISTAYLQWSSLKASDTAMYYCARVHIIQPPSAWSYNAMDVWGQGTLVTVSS VL: DIQMTQSPSSLSASVGDRVTITCRASQSISTYLNWYQQKPGKAPKLLIFGASNLQSGVPSRFSGSGSGTDFTLTISSLQPEDFATYYCQQSVWEPATFGQGTKVEIKR
0.497

Please look up its MCF7 proliferation IC50: MOR12923 (antibody, human IgG1, kappa, V domains shown) VH: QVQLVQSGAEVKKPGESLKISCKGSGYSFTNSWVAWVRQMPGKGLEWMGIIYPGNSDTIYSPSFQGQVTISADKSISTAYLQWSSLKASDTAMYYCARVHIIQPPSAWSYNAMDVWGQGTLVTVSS VL: DIQMTQSPSSLSASVGDRVTITCRASQSISTYLNWYQQKPGKAPKLLIFGASNLQSGVPSRFSGSGSGTDFTLTISSLQPEDFATYYCQQSMYLPFTFGQGTKVEIKR
0.266

Please look up its MCF7 proliferation IC50: MOR12509 (antibody, human IgG1, kappa, V domains shown, tested as IgG) VH: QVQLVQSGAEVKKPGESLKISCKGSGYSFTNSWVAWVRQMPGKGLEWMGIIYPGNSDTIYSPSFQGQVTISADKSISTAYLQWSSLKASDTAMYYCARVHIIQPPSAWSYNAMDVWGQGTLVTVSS VL: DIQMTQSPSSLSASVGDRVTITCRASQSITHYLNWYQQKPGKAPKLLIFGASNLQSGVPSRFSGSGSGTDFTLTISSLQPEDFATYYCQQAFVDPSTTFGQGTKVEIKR
1.47
